targetEntity: T1, B-cat-Halo (beta-catenin HaloTag fusion expressed in HEK293 cells) (Homo sapiens (Human), UniProt P35222 1-781)
T1 sequence: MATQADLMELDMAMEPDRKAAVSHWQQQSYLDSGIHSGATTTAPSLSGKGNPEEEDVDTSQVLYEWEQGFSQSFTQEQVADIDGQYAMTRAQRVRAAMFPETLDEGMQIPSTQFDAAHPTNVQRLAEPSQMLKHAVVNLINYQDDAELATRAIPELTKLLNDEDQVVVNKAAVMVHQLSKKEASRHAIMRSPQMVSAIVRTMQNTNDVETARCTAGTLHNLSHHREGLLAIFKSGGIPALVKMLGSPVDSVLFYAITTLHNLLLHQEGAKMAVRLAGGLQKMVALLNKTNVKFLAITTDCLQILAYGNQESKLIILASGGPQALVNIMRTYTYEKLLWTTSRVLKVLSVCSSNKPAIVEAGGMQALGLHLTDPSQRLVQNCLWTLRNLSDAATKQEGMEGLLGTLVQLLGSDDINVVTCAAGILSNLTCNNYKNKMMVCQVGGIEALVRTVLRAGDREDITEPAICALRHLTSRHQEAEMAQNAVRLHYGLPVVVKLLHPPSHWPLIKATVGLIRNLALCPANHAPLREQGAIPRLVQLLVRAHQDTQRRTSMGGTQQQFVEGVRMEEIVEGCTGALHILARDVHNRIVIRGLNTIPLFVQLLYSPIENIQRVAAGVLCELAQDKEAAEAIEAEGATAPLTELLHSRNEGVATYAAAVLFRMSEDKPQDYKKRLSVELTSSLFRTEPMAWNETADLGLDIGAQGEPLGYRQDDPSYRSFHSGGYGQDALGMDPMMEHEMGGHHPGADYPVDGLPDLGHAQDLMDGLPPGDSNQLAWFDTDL
protocolNotes: cell-based or functional assay
Starred links: 1 amine or outer side, 2 acyl side, 3 side chain; linkers in the order of their positions; H or OH if unused. Positions of bridges follow the written chain, without caps; N, C: chain ends. Non-standard residues stand in square brackets, D forms with d. Primed or numbered codes have the meaning given here. PyrS2″ = (S)-3-amino-1-((pent-4-en-1-yloxy)carbonyl)pyrrolidine-3-carboxylic acid (stapling residue), C=CCCCOC(=O)N1CC[C@@](N[*:1])(C(=O)[*:2])C1; PyrS3″ = (S)-3-amino-1-((hex-5-en-1-yloxy)carbonyl)pyrrolidine-3-carboxylic acid (stapling residue), C=CCCCCOC(=O)N1CC[C@@](N[*:1])(C(=O)[*:2])C1; PyrS2 = (S)-3-amino-1-((pent-4-en-1-yloxy)carbonyl)pyrrolidine-3-carboxylic acid, C=CCCCOC(=O)N1CC[C@@](N[*:1])(C(=O)[*:2])C1; PyrS3 = (S)-3-amino-1-((hex-5-en-1-yloxy)carbonyl)pyrrolidine-3-carboxylic acid, C=CCCCCOC(=O)N1CC[C@@](N[*:1])(C(=O)[*:2])C1; B5(7) = 2-amino-2-(pent-4-en-1-yl)hept-6-enoic acid, two olefinic side chains, C=CCCCC(CCCC=C)(N[*:1])C(=O)[*:2]; B5(3) = 2,2-bis(4-pentenyl)glycine (stitching residue), C=CCCCC(CCCC=C)(N[*:1])C(=O)[*:2]; B5 = 2-amino-2-(pent-4-en-1-yl)hept-6-enoic acid, C=CCCCC(CCCC=C)(N[*:1])C(=O)[*:2]; Bta = N[C@@H](Cc1csc2ccccc12)C(=O)O; αAllylPro = C=CC[C@@]1(C(=O)O)CCCN1; tBuAla = CC(C)(C)C[C@H](N)C(=O)O; 3Thi = N[C@@H](Cc1ccsc1)C(=O)O
experimentalEndpoint: NanoBRET % inh @ 10 uM
Output should be the measured figure followed by the unit it is expressed in.

Ac-[αAllylPro]D[tBuAla][B5]DDAAFN[PyrS2″][3Thi][Bta][dN]-NH2 (staple 1-4, 4-11) [I-818] = 31.4%
Ac-[αAllylPro]D[tBuAla][B5]DDAAFN[PyrS2″][3Thi][Bta]QA-NH2 (staple 1-4, 4-11) [I-819] = 37.8%
Ac-[αAllylPro]D[tBuAla][B5]DDAAFN[PyrS2″][3Thi][Bta][dT]-NH2 (staple 1-4, 4-11) [I-817] = 45%
Ac-[αAllylPro]D[tBuAla][B5]DDAAFN[PyrS2″][3Thi][Bta]Q[dA]-NH2 (staple 1-4, 4-11) [I-822] = 53%

Each binder below has a reported value. Please supply its NanoBRET % inh @ 10 uM.
1. Ac-[αAllylPro]D[tBuAla][B5]DDAAFN[PyrS2″][3Thi][Bta]HA-NH2 (staple 1-4, 4-11) [I-820]
2. Ac-[αAllylPro]D[tBuAla][B5(7)]DDAAFN[PyrS2][3Thi][Bta]H[dA]-NH2 (staple 1-4, 4-11) [I-823]
3. Ac-[αAllylPro]D[tBuAla][B5(3)]DDAAFN[PyrS3″][3Thi][Bta]N[dA]-NH2 (staple 1-4, 4-11) [I-835]
4. Ac-[αAllylPro]D[tBuAla][B5(7)]DDAAFN[PyrS3][3Thi][Bta]Q[dA]-NH2 (staple 1-4, 4-11) [I-831]

### Response
["30.8%", "37.5%", "27.6%", "32.4%"]
